Data credit: the nanobody polyreactivity screen of Harvey et al. (2022)

test: yeast display, Sf9 membrane polyspecificity reagent, FACS + sequencing; frameworks hold sequencing errors
measure: polyreactivity (PSR sort gate)

Please review the following examples before continuing.
{"sequence string": "QVQLVESGGGLVQAGGSLRLSCAASGSTFAINVMGWYRQAPGKERELVAAISSVGGTNYADSVKGRFTISRDNAKNTVYLQMNSLKPEDTAVYYCATVYSSWTVRYDYWGQGTQVTVSS", "polyreactivity (PSR sort gate)": "low polyreactivity"}
{"sequence string": "QVQLVESGGGLVQAGGSLRLSCAASGFTFYGYVMGWYRQAPGKERDLVAVISRSGDRTYYADSVKGRFTISRDNAKNTVYFQMNSLKPEDTAVYYCAARVYLLGWWTGNGYWGQGTQVTVSS", "polyreactivity (PSR sort gate)": "high polyreactivity"}
{"sequence string": "QVQLVESGGGLVQAGGSLRLSCAASGSIFSSNAMGWYRQAPGKERELVAAITRGGRTTYADSVKGRFTISRDNAKKTVYLQMNSLKPEDTAVYYCNAESYLTGWWVDYWGQGTQVTVSS", "polyreactivity (PSR sort gate)": "low polyreactivity"}
{"sequence string": "QVQRVESGGGVVQAGGSLRLSCAASGSTFQLYAMGWYRQAPGKERELVAGISRDGSTYYADSVKGRFTISRDNAKNTVYLQMNSLKPEDTAVYYCAAKYYGNKRDLYYWGQGTQVTVSS", "polyreactivity (PSR sort gate)": "low polyreactivity"}

Lookup: Name the recorded polyreactivity (PSR sort gate) for QVQLVESGGGLVQAGGSLRLSCAASGFTFGFYVMGWYRQAPGKERELVAAITVRAGSTYYADSVKGRFTISRDNAKNTVYLQMNSLKPEDTAVYYCAADSYRLYSSIAYYGMYSWGQGTQVTVSS .
Found: high polyreactivity
